assay: gradient 5% acetonitrile 3 min, to 50% in 2 min, to 85% in 15 min, held 3 min, 100 µL/min; settings: column: Zorbax Extend-C18 2.1 x 50 mm; eluents: water / acetonitrile, 0.1% formic acid
// boundary case: RP-LC retention time equal to 800 s maps to Criterion not met; strictly smaller maps to Criterion met

# compound, answerLabel
rows = [
    ("Cc1cc(C(=O)Nc2nnc(-c3ccn(C(C)C)n3)o2)no1", "Criterion met"),
    ("CC1CCN(S(=O)(=O)N2CCC(C(=O)N3CCC(Cc4nncn4CC4CC4)CC3)CC2)CC1", "Criterion met"),
    ("CC(=O)c1ccc(NC(=O)Cn2c(N3CCc4ccccc4C3)nc(C)cc2=O)cc1", "Criterion met"),
    ("CCN(CC)CCNc1ncnc2c1cnn2-c1cccc(Cl)c1", "Criterion met"),
]

Task: Check if RP-LC retention time falls below 800 s for CCN(CC)C(=O)c1ccc2c(c1)N(CC(=O)NCCOC)C(=O)C1CCCCN21 (stereo not given) .
Output: Criterion met

Task: How about this compound: Cc1nc(-c2ccc3c(c2)CCN3C(=O)C2CCOC2)cs1 (stereo not given)
Output: Criterion met
